study.system: GK (glucokinase, residues 12-465) (Homo sapiens, UniProt P35557)
Construct: I.D. No. 1 corresponds to residues 12-465 of glucokinase; made in house; host or cells: DH10b-T1r E. coli
Sequence (P35557 with tags, fused parts or gaps isoform P35557-2): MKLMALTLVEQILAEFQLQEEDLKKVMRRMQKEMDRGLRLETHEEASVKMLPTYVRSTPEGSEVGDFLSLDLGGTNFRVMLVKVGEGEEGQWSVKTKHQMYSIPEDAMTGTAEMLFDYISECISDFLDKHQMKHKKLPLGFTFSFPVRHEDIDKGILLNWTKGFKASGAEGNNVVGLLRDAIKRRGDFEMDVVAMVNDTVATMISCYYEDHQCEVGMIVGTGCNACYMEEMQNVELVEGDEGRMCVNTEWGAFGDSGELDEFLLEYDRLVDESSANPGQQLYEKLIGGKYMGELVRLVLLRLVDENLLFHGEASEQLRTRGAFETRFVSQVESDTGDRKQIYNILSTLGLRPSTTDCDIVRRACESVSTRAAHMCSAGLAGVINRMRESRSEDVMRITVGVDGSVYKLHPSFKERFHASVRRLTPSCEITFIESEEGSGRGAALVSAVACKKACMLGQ
test.summary: enzymatic glucokinase activity assay (ATP consumption, KinaseGlo luminescence)
Type: biochemical
particulars: calculated maximal gain in GK enzyme activity at a saturating concentration of the compound; 5 μM ATP, 5 mM Glucose; reported as bins; read-out: % ACTmax
parameter.measured: Emax

Some compounds with known Emax results, for comparison:
NC(=O)c1cnc(NC(=O)C(CC2CCCC2)n2cc(S(=O)(=O)C3CC3)cn2)s1 (centres unmarked) [Compound 57]	101 to 105%
O=C(Nc1ncc(Cl)s1)[C@@H](CC1CCOCC1)n1cc(S(=O)(=O)C2CC2)cn1 [Compound 40]	≤ 90%
O=C(Nc1ncc(Cl)s1)[C@H](CC1CCOCC1)n1cc(S(=O)(=O)C2CC2)cn1 [Compound 42]	≥ 111%
COc1ccc2nc(NC(=O)C(CC3CCOCC3)n3cc(S(=O)(=O)c4ccc(Cl)cc4)cn3)sc2n1 (centres unmarked) [Compound 30]	≤ 90%
O=C(Nc1ncc(F)s1)C(CC1CCOCC1)n1cc2c(S(=O)(=O)C3CC3)c(F)ccc2n1 (centres unmarked) [Compound 148]	≤ 90%
COc1ccc2c(cnn2[C@H](CC2CCOCC2)C(=O)Nc2ccn(C)n2)c1S(=O)(=O)C1CC1 [Compound 110]	106 to 110%
O=C(Nc1ncc(F)s1)C(CC1CCOCC1)n1ncc2c(S(=O)(=O)C3CC3)ccnc21 (centres unmarked) [Compound 127]	101 to 105%

Please turn your attention to the following entry.
Value lookup for Emax; key = N#Cc1cc(S(=O)(=O)C2CC2)c2cnn(C(CC3CCOCC3)C(=O)Nc3ncc(F)s3)c2c1 (centres unmarked) [Compound 120]
90 to 100%

###

Exercise: state measured Emax for each of the molecules provided.
study.system: GK (glucokinase, residues 12-465) (Homo sapiens)
Construct: I.D. No. 1 corresponds to residues 12-465 of glucokinase; made in house; host or cells: DH10b-T1r E. coli
test.summary: enzymatic glucokinase activity assay (ATP consumption, KinaseGlo luminescence)
Type: biochemical
particulars: calculated maximal gain in GK enzyme activity at a saturating concentration of the compound; 5 μM ATP, 5 mM Glucose; reported as bins; read-out: % ACTmax

Field: example entries. Status: answers known.
CCn1ccc(NC(=O)C(CC2CCOCC2)n2ncc3c(S(=O)(=O)C4CC4)c(F)ccc32)n1 (centres unmarked) [Compound 155]	106 to 110%
N#Cc1cc(S(=O)(=O)C2CC2)c2cnn(C(CC3CCOCC3)C(=O)Nc3cnccn3)c2c1 (centres unmarked) [Compound 100]	≤ 90%
Nc1cc(S(=O)(=O)C2CC2)c2cnn([C@H](CC3CCOCC3)C(=O)Nc3cnccn3)c2n1 [Compound 163]	≤ 90%
CC(C)(C)S(=O)(=O)c1cnn(C(CC2CCOCC2)C(=O)Nc2ncc(F)s2)c1 (centres unmarked) [Compound 49]	90 to 100%
COc1cc(S(=O)(=O)C2CC2)c2cnn(C(CC3CCOCC3)C(=O)Nc3cnccn3)c2c1 (centres unmarked) [Compound 92]	≤ 90%

Give Emax for each of the items listed below.
1. O=C(Nc1ncc(F)s1)C(CC1CCOCC1)n1ncc2c(S(=O)(=O)C3CC3)c(Cl)ccc21 (centres unmarked) [Compound 22]
2. N#Cc1ccc(NC(=O)C(CC2CCOCC2)n2ncc3c(S(=O)(=O)C4CC4)cccc32)nc1 (centres unmarked) [Compound 135]
3. O=C1CC[C@H](C[C@H](C(=O)Nc2ncc(Cl)s2)n2ncc3c(S(=O)(=O)C4CC4)cccc32)C1 [Compound 114]
4. O=C(Nc1cnccn1)C(CC1CCOCC1)n1cc2c(S(=O)(=O)C3CC3)cncc2n1 (centres unmarked) [Compound 169]
5. O=C(Nc1ccc(Cl)cn1)C(CC1CCOCC1)n1cc(S(=O)(=O)C2CC2)cn1 (centres unmarked) [Compound 45]
6. Cn1ccc(NC(=O)[C@H](CC2CCOCC2)n2ncc3c(S(=O)(=O)C4CC4)ccnc32)n1 [Compound 98]

["≥ 111%", "106 to 110%", "101 to 105%", "≤ 90%", "≥ 111%", "90 to 100%"]

List Emax for every entry below, keeping the order given.
1. O=C(Nc1ncc(F)s1)C(CC1CCOCC1)n1ncc2c(S(=O)(=O)C3CC3)cc(Cl)cc21 (centres unmarked) [Compound 121]
2. O=C(Nc1ncc(F)s1)C(CC1CCOCC1)n1cc2c(S(=O)(=O)C3CC3)cncc2n1 (centres unmarked) [Compound 140]
3. O=C(O)c1cnc(NC(=O)C(CC2CCCC2)n2cc(S(=O)(=O)C3CC3)cn2)s1 (centres unmarked) [Compound 7]
4. N#Cc1cccnc1NC(=O)C(CC1CCOCC1)n1ncc2c(S(=O)(=O)C3CC3)cccc21 (centres unmarked) [Compound 86]
5. O=C1CC[C@H](C[C@@H](C(=O)Nc2ncc(F)s2)n2ncc3c(S(=O)(=O)C4CC4)cc(Cl)cc32)C1 [Compound 79]
6. O=C(Nc1ncc(F)s1)[C@@H](CC1CCOCC1)n1ncc2c(S(=O)(=O)C3CC3)cc(O)cc21 [Compound 77]

1. 90 to 100%
2. ≤ 90%
3. ≤ 90%
4. ≤ 90%
5. 90 to 100%
6. 101 to 105%

Taken from patent US8563730B2.
